- experiment: Half life in Sprague-Dawley rat at 0.5 mg/kg, iv
- Type: ADME, organism-based
- Parameters: dose 0.5 mg/kg, route intravenous
- protocol-conditions: in vivo
experimental-readout: half-life (h)

Cc1ccc(NC(=O)c2ccc3c(c2)OC(F)(F)O3)cc1C(=O)Nc1cnc(Nc2ccc(N3CCN(C)CC3)cc2)nc1 :: 2.5

[a] Cc1ccc(NC(=O)c2ccc(C(C)(C)C)cc2)cc1C(=O)Nc1cnc(Nc2ccc(N3CCN(C)CC3)cc2)nc1
[b] Cc1ccc(NC(=O)c2cccc(C(F)(F)F)c2C)cc1C(=O)Nc1cnc(Nc2ccc(N3CCN(C)CC3)cc2)nc1
// query Please tell me which of the two, a or b , has the higher reported half-life value. Kindly state the label of the option you pick.
// result a

* * *

- Tested on: Mus musculus
- experiment: Plasma concentration in BALB/c mouse at 100 mg/kg, po
- Format: ADME, organism-based
- Parameters: dose 100 mg/kg, route oral
- protocol-conditions: in vivo
experimental-readout: concentration (nM)
Give the value in nM but do not write nM after it.

concentration measured on Cc1ccc(NC(=O)c2cccc(C(F)(F)F)c2)cc1C(=O)Nc1cnc(Nc2ccc(N3CCN(C)CC3)cc2)nc1 = 1540

* * *

- experiment: AUC (0 to infinity) in Sprague-Dawley rat at 2 mg/kg, po
- Format: ADME, organism-based
- Design: time infinity, dose 2 mg/kg, route oral
- protocol-conditions: plasma
experimental-readout: AUC(0-inf) (ng·h/mL)

Use the examples below as a reference point.
COc1cc(OC)cc(C(=O)Nc2ccc(C)c(C(=O)Nc3cnc(Nc4ccc(N5CCN(C)CC5)cc4)nc3)c2)c1 :: 528
Cc1ccc(NC(=O)c2cccc(C(F)(F)F)c2C)cc1C(=O)Nc1cnc(Nc2ccc(N3CCN(C)CC3)cc2)nc1 :: 92
Cc1ccc(NC(=O)c2cccc(C(F)(F)F)c2)cc1C(=O)Nc1cnc(Nc2ccc(N3CCN(C)CC3)cc2)nc1 :: 419

[a] Cc1ccc(NC(=O)c2ccc3c(c2)OC(F)(F)O3)cc1C(=O)Nc1cnc(Nc2ccc(N3CCN(C)CC3)cc2)nc1
[b] Cc1ccc(NC(=O)c2cc(F)cc(C(F)(F)F)c2)cc1C(=O)Nc1cnc(Nc2ccc(N3CCN(C)CC3)cc2)nc1
// query Smaller AUC(0-inf) value? Options are a and b Lab note: record the label of whichever item you select.
// result a

* * *

- target-or-system: Macrophage-stimulating protein receptor (Homo sapiens, UniProt Q04912)
- Sequence (Q04912 25-304 limits assumed): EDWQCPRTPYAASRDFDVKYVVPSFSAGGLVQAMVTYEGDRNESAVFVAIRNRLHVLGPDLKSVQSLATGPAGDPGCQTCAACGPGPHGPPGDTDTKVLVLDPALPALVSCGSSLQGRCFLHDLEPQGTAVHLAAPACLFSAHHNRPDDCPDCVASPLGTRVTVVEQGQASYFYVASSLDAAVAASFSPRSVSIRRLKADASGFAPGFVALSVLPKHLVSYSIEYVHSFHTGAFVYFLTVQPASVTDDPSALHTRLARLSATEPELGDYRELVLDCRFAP
- Sequence (Q04912 310-1400 limits assumed): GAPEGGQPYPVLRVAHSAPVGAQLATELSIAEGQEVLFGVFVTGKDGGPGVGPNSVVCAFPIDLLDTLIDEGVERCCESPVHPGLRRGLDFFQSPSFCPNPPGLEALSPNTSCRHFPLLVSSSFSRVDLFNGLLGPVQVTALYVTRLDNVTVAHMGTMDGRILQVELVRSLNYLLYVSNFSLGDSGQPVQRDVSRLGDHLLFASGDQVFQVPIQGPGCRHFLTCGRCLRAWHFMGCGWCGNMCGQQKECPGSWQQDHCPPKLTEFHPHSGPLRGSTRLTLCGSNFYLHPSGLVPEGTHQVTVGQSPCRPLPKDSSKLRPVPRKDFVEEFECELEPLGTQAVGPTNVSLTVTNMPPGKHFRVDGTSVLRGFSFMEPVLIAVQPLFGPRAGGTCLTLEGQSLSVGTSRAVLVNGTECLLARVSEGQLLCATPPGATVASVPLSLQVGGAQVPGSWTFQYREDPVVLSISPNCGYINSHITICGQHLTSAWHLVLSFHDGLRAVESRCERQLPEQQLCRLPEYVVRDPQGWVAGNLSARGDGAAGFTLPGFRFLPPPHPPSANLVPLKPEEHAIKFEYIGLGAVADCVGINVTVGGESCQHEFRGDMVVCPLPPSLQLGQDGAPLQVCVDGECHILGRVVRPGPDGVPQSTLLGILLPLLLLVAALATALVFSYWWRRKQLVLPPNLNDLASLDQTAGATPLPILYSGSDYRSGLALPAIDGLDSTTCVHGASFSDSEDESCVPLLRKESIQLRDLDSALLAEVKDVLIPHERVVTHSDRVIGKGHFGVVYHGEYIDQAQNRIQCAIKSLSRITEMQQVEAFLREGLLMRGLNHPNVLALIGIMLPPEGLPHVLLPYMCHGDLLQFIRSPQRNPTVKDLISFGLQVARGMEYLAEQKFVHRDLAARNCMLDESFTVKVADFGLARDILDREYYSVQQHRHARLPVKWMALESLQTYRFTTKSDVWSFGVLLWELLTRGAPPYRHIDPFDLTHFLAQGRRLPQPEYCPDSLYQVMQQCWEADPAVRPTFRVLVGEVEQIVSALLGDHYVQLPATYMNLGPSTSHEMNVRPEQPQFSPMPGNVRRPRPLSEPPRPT
experimental-readout: IC50

Summary: Cc1ccc(NC(=O)c2cccc(C(F)(F)F)c2)cc1C(=O)Nc1cnc(Nc2ccc(N3CCN(C)CC3)cc2)nc1 , Macrophage-stimulating protein receptor (Homo sapiens, UniProt Q04912), IC50 = > 25 µM

* * *

Hi! I'm sharing some IC50 results obtained with UniProt:P35968.
Sequence (P35968 whole entry): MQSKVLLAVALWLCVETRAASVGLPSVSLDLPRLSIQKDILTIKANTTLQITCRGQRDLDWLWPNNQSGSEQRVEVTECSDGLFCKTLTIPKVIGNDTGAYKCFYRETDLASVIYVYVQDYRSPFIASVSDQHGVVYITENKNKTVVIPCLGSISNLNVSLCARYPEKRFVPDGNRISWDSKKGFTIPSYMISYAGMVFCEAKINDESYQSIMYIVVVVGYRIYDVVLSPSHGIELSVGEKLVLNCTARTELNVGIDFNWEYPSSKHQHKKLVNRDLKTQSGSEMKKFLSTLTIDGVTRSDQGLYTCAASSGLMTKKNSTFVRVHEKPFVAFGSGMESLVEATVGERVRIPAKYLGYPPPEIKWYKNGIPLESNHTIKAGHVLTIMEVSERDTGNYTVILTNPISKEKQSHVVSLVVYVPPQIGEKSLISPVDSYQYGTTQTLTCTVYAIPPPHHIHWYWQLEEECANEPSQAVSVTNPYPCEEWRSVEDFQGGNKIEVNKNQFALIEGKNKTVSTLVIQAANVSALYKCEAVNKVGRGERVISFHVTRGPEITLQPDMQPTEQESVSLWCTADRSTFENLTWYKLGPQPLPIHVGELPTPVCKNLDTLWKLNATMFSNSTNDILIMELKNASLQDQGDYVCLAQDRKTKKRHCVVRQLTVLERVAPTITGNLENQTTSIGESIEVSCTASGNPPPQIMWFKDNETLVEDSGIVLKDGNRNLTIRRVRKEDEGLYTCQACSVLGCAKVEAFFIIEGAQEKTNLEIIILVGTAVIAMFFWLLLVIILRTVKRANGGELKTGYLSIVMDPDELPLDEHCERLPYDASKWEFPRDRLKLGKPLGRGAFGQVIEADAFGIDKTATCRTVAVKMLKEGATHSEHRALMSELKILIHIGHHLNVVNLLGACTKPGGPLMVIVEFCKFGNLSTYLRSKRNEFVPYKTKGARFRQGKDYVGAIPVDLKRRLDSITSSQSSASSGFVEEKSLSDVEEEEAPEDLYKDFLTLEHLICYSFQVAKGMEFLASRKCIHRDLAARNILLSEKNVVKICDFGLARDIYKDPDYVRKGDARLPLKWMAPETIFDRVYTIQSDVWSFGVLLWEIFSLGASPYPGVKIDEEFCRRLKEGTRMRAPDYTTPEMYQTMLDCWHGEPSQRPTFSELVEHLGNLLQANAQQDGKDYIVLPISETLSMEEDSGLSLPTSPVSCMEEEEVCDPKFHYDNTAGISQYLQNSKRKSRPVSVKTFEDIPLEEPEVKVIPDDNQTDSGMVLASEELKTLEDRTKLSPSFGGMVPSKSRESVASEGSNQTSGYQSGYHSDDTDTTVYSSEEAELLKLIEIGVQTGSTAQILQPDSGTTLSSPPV

Please review the entries below; each comes with its answer.
Cc1ccc(NC(=O)c2cccc(C(F)(F)F)c2)cc1C(=O)Nc1cnc(NCCCN2CCOCC2)nc1 :: > 8.3 µM
Cc1ccc(NC(=O)c2cccc(C(F)(F)F)c2)cc1C(=O)Nc1cnc(NC2CCN(C)CC2)nc1 :: > 25 µM

Consider the additional molecule presented here.
# lookup: CN1CCN(c2ccc(Nc3ncc(NC(=O)c4c(Cl)cccc4Cl)cn3)cc2)CC1 on UniProt:P35968, IC50 = > 25 µM
